# Measured on: UniProt:Q92731
# Measurement description: Activity at human ERbeta expressed in HEC1 cells co-transfected with 2ERE-pS2-Luc assessed as relative transcriptional potency by luciferase reporter assay
Recorded metric: EC50 (µM)

Compound	EC50, µM
CCC(Cc1ccc(O)cc1)c1ccc(O)cn1 (stereo unspecified)	0.017

a: CC[C@H](c1ccc(O)cn1)[C@@H](CC)c1ccc(O)cc1 (relative stereo)
b: CC[C@H](c1ccc(O)cc1)[C@H](CC)c1ccc(O)cn1 (relative stereo)
c: CC(Cc1ccc(O)cn1)c1ccc(O)cc1 (stereo unspecified)
d: CC(Cc1ccc(O)cc1)c1ccc(O)cn1 (stereo unspecified)
Lookup: # desc sort on EC50 across 4 compounds // format: requested-order list of labels
Found: c, d, b, a

* * *

# Measured on: Estrogen receptor beta (Homo sapiens)
# Measurement description: Activity at human ERbeta expressed in HEC1 cells co-transfected with 2ERE-pS2-Luc assessed as relative transcriptional potency by luciferase reporter assay relative to estradiol
# Type: cell-based
# Condition summary: HEC-1
Recorded metric: Activity (%)

Compound	Recorded metric	Unit of measure	Value observed
CC[C@H](c1ccc(O)cn1)[C@@H](C)c1ccc(O)cc1 (relative stereo)	Activity	%	45

1: CC[C@H](c1ccc(O)cn1)[C@@H](CC)c1ccc(O)cc1 (relative stereo)
2: CC(Cc1ccc(O)cc1)c1ccc(O)cn1 (stereo unspecified)
3: CC(Cc1ccc(O)cn1)c1ccc(O)cc1 (stereo unspecified)
4: CCC(Cc1ccc(O)cc1)c1ccc(O)cn1 (stereo unspecified)
5: CC[C@H](c1ccc(O)cc1)[C@H](CC)c1ccc(O)cn1 (relative stereo)
Lookup: Give the ascending ranking of the items by reported Activity. Give me the labels in the order the question wants.
Found: 3, 2, 5, 4, 1

* * *

# Measured on: Estrogen receptor beta (Homo sapiens, UniProt Q92731)
# Sequence (Q92731 whole entry): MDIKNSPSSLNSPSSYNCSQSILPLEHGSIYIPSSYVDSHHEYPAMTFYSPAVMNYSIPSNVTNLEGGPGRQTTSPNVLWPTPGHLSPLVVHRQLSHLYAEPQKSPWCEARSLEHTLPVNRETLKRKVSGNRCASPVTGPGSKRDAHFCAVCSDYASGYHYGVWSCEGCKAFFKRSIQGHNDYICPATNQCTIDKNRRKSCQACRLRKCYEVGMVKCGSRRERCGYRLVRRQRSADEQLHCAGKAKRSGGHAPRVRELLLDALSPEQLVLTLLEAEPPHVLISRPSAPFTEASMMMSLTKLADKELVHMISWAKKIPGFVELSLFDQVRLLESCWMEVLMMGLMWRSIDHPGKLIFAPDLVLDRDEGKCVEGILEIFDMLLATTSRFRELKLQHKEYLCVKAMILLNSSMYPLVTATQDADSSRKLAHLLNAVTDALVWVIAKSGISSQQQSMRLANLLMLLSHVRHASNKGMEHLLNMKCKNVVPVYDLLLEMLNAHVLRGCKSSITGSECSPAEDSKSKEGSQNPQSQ
# Measurement description: Displacement of [3H]estradiol form human ERbeta receptor assessed as relative binding affinity by competitive radiometric binding assay relative to estradiol
Recorded metric: RBA (%)

Compound	Value observed
CCCC(Cc1ccc(O)cc1)c1ccc(O)cn1 (configuration not stated)	0.101
CC[C@H](c1ccc(O)cc1)[C@H](CC)c1ccc(O)cn1 (relative stereo)	0.67
CC[C@H](c1ccc(O)cn1)[C@H](C)c1ccc(O)cc1 (relative stereo)	0.119

I: CCC(Cc1ccc(O)cc1)c1ccc(O)cn1 (configuration not stated)
II: CC(Cc1ccc(O)cn1)c1ccc(O)cc1 (configuration not stated)
III: CC(Cc1ccc(O)cc1)c1ccc(O)cn1 (configuration not stated)
IV: CC[C@H](c1ccccc1)[C@H](CC)c1ccc(O)cn1
V: CC[C@H](c1ccc(O)cn1)[C@@H](CC)c1ccc(O)cc1 (relative stereo)
Lookup: Rank ascending by RBA. Lab note: final answer is the ordered label list.
Found: IV, II, III, I, V
(IV: 0.023%, II: 0.17%, III: 0.27%, I: 0.72%, V: 7.5%)

A: CCC(Cc1ccc(O)cn1)c1ccc(O)cc1 (configuration not stated)
B: CC[C@H](c1ccc(O)cn1)[C@@H](CC)c1ccccc1
Lookup: // returns A or B , whichever has the lower RBA Choose, then provide that item's label.
Found: A

* * *

# Measured on: Estrogen receptor (Homo sapiens, UniProt P03372)
# Sequence (P03372 whole entry): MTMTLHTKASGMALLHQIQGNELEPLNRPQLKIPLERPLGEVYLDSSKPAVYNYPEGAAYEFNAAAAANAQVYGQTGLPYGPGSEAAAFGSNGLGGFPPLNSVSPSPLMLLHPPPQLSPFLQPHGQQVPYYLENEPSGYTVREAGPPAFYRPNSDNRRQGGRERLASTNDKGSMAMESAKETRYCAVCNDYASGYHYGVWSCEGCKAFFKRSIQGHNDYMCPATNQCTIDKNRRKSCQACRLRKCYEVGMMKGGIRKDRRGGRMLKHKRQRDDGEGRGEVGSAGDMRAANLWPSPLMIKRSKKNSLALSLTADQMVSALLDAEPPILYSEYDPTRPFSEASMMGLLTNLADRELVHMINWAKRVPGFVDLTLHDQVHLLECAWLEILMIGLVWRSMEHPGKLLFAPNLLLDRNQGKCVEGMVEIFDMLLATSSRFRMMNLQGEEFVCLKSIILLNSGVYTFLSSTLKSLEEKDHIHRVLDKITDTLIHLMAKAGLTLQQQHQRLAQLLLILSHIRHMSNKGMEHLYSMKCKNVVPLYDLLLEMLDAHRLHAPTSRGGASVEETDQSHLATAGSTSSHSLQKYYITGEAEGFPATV
# Measurement description: Activity at human ERalpha expressed in HEC1 cells co-transfected with 2ERE-pS2-Luc assessed as relative transcriptional potency by luciferase reporter assay
Recorded metric: EC50 (µM)

Compound	Recorded metric	Unit of measure	Value observed
CC[C@H](c1ccc(O)cn1)[C@@H](C)c1ccc(O)cc1 (relative stereo)	EC50	µM	0.00011
CC[C@H](c1ccc(O)cn1)[C@@H](CC)c1ccc(O)cc1 (relative stereo)	EC50	µM	0.00011
CC(Cc1ccc(O)cc1)c1ccc(O)cn1 (stereo unspecified)	EC50	µM	0.33

I: CC(Cc1ccc(O)cn1)c1ccc(O)cc1 (stereo unspecified)
II: CCC(Cc1ccc(O)cc1)c1ccc(O)cn1 (stereo unspecified)
III: CC[C@H](c1ccc(O)cc1)[C@H](CC)c1ccc(O)cn1 (relative stereo)
Lookup: Put the items in sequence by EC50, from largest down. As an answer, provide the labels arranged in the order called for.
Found: I, II, III
(I: 0.44 µM, II: 0.065 µM, III: 0.016 µM)

Origin of measurements: ChEMBL document CHEMBL1153603
